// data source = ChEMBL document CHEMBL2074407

subjectOfTest: UniProt P46720
Sequence (P46720 whole entry): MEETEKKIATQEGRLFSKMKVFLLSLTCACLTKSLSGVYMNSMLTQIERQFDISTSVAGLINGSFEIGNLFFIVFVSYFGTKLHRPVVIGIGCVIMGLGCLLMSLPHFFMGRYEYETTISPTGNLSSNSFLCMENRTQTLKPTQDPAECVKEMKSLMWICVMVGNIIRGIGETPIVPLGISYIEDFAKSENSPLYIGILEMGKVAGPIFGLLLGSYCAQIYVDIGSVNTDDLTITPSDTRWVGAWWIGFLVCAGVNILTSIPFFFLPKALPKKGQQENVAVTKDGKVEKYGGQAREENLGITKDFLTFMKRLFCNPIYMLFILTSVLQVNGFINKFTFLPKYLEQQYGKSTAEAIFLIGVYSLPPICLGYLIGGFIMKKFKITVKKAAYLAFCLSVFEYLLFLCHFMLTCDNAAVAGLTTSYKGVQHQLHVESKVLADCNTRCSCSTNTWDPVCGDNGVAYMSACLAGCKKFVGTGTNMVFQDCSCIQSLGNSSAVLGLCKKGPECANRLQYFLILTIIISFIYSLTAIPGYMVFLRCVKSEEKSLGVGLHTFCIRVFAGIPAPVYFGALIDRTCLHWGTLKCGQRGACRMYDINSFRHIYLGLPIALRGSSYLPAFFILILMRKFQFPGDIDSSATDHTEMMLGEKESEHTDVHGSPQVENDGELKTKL
assayDetails: TP_TRANSPORTER: uptake in Xenopus laevis oocytes
Format: functional, cell-based
assaySetup: oocyte
Counter-ions that a name gives are not always drawn.
resultType: Activity

INSERT INTO results (compound, resulttype, reportedresult) VALUES
  ('N[C@@H](Cc1cc(I)c(Oc2ccc(OS(=O)(=O)O)c(I)c2)c(I)c1)C(=O)O [TRIIODOTHYRONINE SULFATE]', 'Activity', 'substrate [+]'),
  ('NS(=O)(=O)O.N[C@@H](Cc1cc(I)c(Oc2cc(I)c(O)c(I)c2)c(I)c1)C(=O)O [THYROXINE SULFAMATE]', 'Activity', 'substrate [+]'),
  ('NS(=O)(=O)O.N[C@@H](Cc1cc(I)c(Oc2ccc(O)c(I)c2)c(I)c1)C(=O)O [TRIIODOTHYRONINE SULFAMATE]', 'Activity', 'substrate [+]'),
  ('NC(Cc1ccc(Oc2ccc(O)c(I)c2)c(I)c1)C(=O)O (stereo not given)', 'Activity', 'substrate [+]'),
  ('N[C@@H](Cc1ccc(Oc2cc(I)c(O)c(I)c2)c(I)c1)C(=O)O', 'Activity', 'substrate [+]'),
  ('N[C@@H](Cc1cc(I)c(Oc2ccc(O)c(I)c2)c(I)c1)C(=O)O', 'Activity', 'substrate [+]'),
  ('NC(Cc1cc(I)c(Oc2cc(I)c(OS(=O)(=O)O)c(I)c2)c(I)c1)C(=O)O (stereo not given) [THYROXINE SULFATE]', 'Activity', 'substrate [+]'),
  ('N[C@@H](Cc1ccc(Oc2cc(I)c(O)c(I)c2)c(I)c1)C(=O)O.O=S(=O)(O)O [REVERSE TRIIODOTHYRONINE(RT3) SULFATE]', 'Activity', 'substrate [+]'),
  ('NC(Cc1ccc(Oc2ccc(OS(=O)(=O)O)c(I)c2)c(I)c1)C(=O)O (stereo not given) [DIIODOTHYRONINE SULFATE]', 'Activity', 'substrate [+]'),
  ('N[C@@H](Cc1cc(I)c(Oc2cc(I)c(O)c(I)c2)c(I)c1)C(=O)O', 'Activity', 'substrate [+]');
